experiment: viability loss of mouse 3T3 cells – cell-based, cherry-pick, single point, set 2, cytotoxicity control, confirmation (AID 651744); settings: NIH/3T3 viability, CellTiter-Glo ATP luminescence, 90 h; at 24.9 µM; active compounds read high;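 also: 0% = median of neutral control wells and 100% = median of positive control wells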
Screen size: about 5,600 compounds; about 3,100 (55%) were called active. Another 3% or so got no clear call; they are omitted. So high a share suggests a set chosen from earlier hits. Only a sample is shown.
REPORTED METRIC: inhibition (%)
Give bare numbers, in %.

STRUCTURE SMILES	inhibition / %
COc1ccc(S(=O)(=O)N2CCCCN3[C@H](CO)[C@@H](c4ccc(C#CC(C)C)cc4)[C@H]3C2)cc1	105

Could you tell me inhibition for each of these compounds? They are listed below.
1. COc1ccc(S(=O)(=O)N2CCCCN3[C@H](C2)[C@H](c2ccc(C#CCC(C)C)cc2)[C@@H]3CO)cc1
2. C[C@@H]1CN([C@H](C)CO)C(=O)c2cc(NS(=O)(=O)c3cccs3)ccc2O[C@@H](C)CCCCO[C@H]1CN(C)Cc1ccc(C(F)(F)F)cc1
3. CC(C)C#Cc1ccc([C@H]2[C@H](CO)N3CCCCN(C(=O)NC(C)C)C[C@@H]23)cc1

Solution:
1: 64.2; 2: 103; 3: 50

###

experiment: viability loss of mouse 3T3 cells – cell-based, cherry-pick, single point, set 2, cytotoxicity control, confirmation (AID 651744); details: NIH/3T3 viability, CellTiter-Glo ATP luminescence, 90 h; at 24.9 µM; active compounds read high;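 also: 0% = median of neutral control wells and 100% = median of positive control wells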
The campaign covered roughly 5,600 compounds. About 3,100 (55%) were called active. Inconclusive results (about 3%) are left out. The set was probably picked from earlier hits. Only a sample is shown.
REPORTED METRIC: inhibition (%)
One number for each entry, in %.

Could you report inhibition for every entry in the following list?
1. C[C@H]1CCCCO[C@H](CN(C)S(=O)(=O)c2ccc(Cl)cc2)[C@@H](C)CN([C@@H](C)CO)C(=O)c2cc(NC(=O)Nc3ccc4c(c3)OCO4)ccc2O1
2. C[C@@H]1CN([C@@H](C)CO)C(=O)c2cc(NC(=O)C3CCCCC3)ccc2O[C@@H](C)CCCCO[C@H]1CN(C)Cc1ccncc1

Solution:
1: 7.66; 2: -15.9

###

experiment: viability loss of mouse 3T3 cells – cell-based, cherry-pick, single point, set 2, cytotoxicity control, confirmation (AID 651744); conditions: NIH/3T3 viability, CellTiter-Glo ATP luminescence, 90 h; at 24.9 µM; active compounds read high;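 also: 0% = median of neutral control wells and 100% = median of positive control wells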
In all, about 5,600 compounds went through this assay and about 3,100 (55%) were called active. Inconclusive results (about 3%) are left out. So high a share suggests a set chosen from earlier hits. Not all results are given here.
REPORTED METRIC: inhibition

See these solved cases before continuing.
STRUCTURE SMILES	inhibition
COc1ccc(S(=O)(=O)Nc2ccc3c(c2)C(=O)N([C@@H](C)CO)C[C@H](C)[C@H](CN(C)Cc2ccc(C(F)(F)F)cc2)O3)cc1	35.2% (active)
Cc1ccc(S(=O)(=O)N(C)C[C@@H]2OCCCC[C@@H](C)Oc3ccc(NS(=O)(=O)c4ccc(F)cc4)cc3C(=O)N([C@H](C)CO)C[C@H]2C)cc1	-22.2% (inactive)
COc1ccc(CN(C)C[C@H]2Oc3ccc(NS(=O)(=O)c4ccc(Cl)cc4)cc3CC(=O)N([C@@H](C)CO)C[C@H]2C)cc1	36.9% (active)
COc1ccc(NC(=O)Nc2ccc3c(c2)C(=O)N([C@H](C)CO)C[C@H](C)[C@H](CN(C)S(=O)(=O)c2ccc(Cl)cc2)OCCCC[C@H](C)O3)cc1	3.56% (inactive)
Cc1ccc(S(=O)(=O)Nc2ccc3c(c2)C(=O)N([C@H](C)CO)C[C@H](C)[C@H](CN(C)Cc2ccc(Cl)c(Cl)c2)O3)cc1	104% (active)

# batch: return inhibition for each of the 2 compounds below
1. O=C(NCC1CCCCC1)[C@H]1[C@H](CO)[C@H]2Cn3c(cccc3=O)[C@H]2N1C(=O)CC1CC1
2. COc1ccc(S(=O)(=O)Nc2ccc3c(c2)C(=O)N([C@@H](C)CO)C[C@H](C)[C@@H](CN(C)Cc2ccc(C(F)(F)F)cc2)O3)cc1

Solution:
1: 2.76% (inactive); 2: 5.53% (inactive)
